experiment.summary: Plasma nutrikinetics of unconjugated phenolic/aromatic acids after curry test meals (LC-MS/MS, non-compartmental)
experimental.parameters: male, human, plasma, oral, 12 g mixed spices
result.type: AUC(0-t) (µM·h)

molecule="O=C(O)Cc1cccc(O)c1 [3-Hydroxyphenylacetic acid (3OH-PAA), 3-hydroxyphenylacetic acid]" result_number=0.113
molecule="O=C(O)Cc1ccc(O)cc1 [4-Hydroxyphenylacetic acid (4OH-PAA), 4-hydroxyphenylacetic acid]" result_number=2.17
molecule=O=C(O)CNC(=O)c1ccccc1 result_number=3.06
molecule="O=C(O)CNC(=O)c1cccc(O)c1 [3-Hydroxyhippuric acid (3OH-HA), 3-hydroxyhippuric acid]" result_number=0.0884
molecule="O=C(O)CCc1cccc(O)c1 [3-(3-hydroxyphenyl)-propanoic acid]" result_number=0.226
molecule="O=C(O)c1ccc(O)cc1 [4-Hydroxybenzoic acid (4OH-BA), 4-hydroxybenzoic acid]" result_number=0.114
molecule=O=C(O)/C=C/c1ccccc1 result_number=0.876
molecule="O=C(O)CCc1ccccc1 [3-Phenylpropanoate acid (PPA), 3-phenylpropanoic acid]" result_number=1.86
molecule="O=C(O)CCc1ccc(O)cc1 [3-(4-hydroxyphenyl)-propanoic acid]" result_number=0.261

* * *

experiment.summary: Compartmental nutrikinetic modeling of the CNA plasma concentration-time profile (one-compartment, first-order elimination)
Format: in vivo
experimental.parameters: male, human, oral, 0 g mixed spices, D0C, Figure 2C, read-out: Ke, elimination rate constant (converted)
result.type: k el (s⁻¹)

compound="O=C(O)/C=C/c1ccccc1 [Cinnamic acid (CNA), cinnamic acid]" result_number=8.06e-05

* * *

experiment.summary: Compartmental nutrikinetic modeling of the CNA plasma concentration-time profile (one-compartment, first-order elimination)
Format: in vivo
experimental.parameters: male, human, oral, no lag time, 1st order absorption, 1st order elimination, 1-compartment model, assumes elimination is rate-limiting, read-out: average elimination half-life (converted)
result.type: half-life (min)

structure_string=O=C(O)/C=C/c1ccccc1 result_number=39.6

* * *

experiment.summary: Compartmental nutrikinetic modeling of the CNA plasma concentration-time profile (one-compartment, first-order elimination)
Assay type: in vivo
experimental.parameters: male, human, oral, 12 g mixed spices, D2C, Figure 2C, read-out: T0.5, half-life (converted)
result.type: half-life (min)

structure_string=O=C(O)/C=C/c1ccccc1 result_type=half-life display_unit=min result_number=40.2

* * *

experiment.summary: Plasma nutrikinetics of unconjugated phenolic/aromatic acids after curry test meals (LC-MS/MS, non-compartmental)
experimental.parameters: male, human, in vivo, 12 g mixed spices
Measured AUC(0-t), listed per entry.
result.type: AUC(0-t) (µM·h)

structure_string=O=C(O)c1ccccc1 result_number=0.355
structure_string=O=C(O)Cc1ccccc1 result_number=4.13

* * *

experiment.summary: Compartmental nutrikinetic modeling of the CNA plasma concentration-time profile (one-compartment, first-order elimination)
Type: in vivo
experimental.parameters: male, human, oral, 0 g mixed spices, D0C, Figure 2C, read-out: Cmax (one-compartment model)
result.type: Cmax (nM)

structure_string=O=C(O)/C=C/c1ccccc1 result_type=Cmax result_number=2.73

* * *

experiment.summary: Plasma nutrikinetics of unconjugated phenolic/aromatic acids after curry test meals (LC-MS/MS, non-compartmental)
experimental.parameters: male, human, plasma, oral, 0 g mixed spices
Field 'label' (enum: condition met / condition not met). Set to condition met when Cmax is strictly under 30 nM; else condition not met.

compound=O=C(O)/C=C/c1ccccc1 group="condition met"
compound=O=C(O)CNC(=O)c1ccccc1 group="condition not met"
compound="O=C(O)c1ccc(O)cc1 [4-Hydroxybenzoic acid (4OH-BA), 4-hydroxybenzoic acid]" group="condition met"
compound="O=C(O)Cc1ccc(O)cc1 [4-Hydroxyphenylacetic acid (4OH-PAA), 4-hydroxyphenylacetic acid]" group="condition not met"
compound="O=C(O)CCc1cccc(O)c1 [3-(3-hydroxyphenyl)-propanoic acid]" group="condition not met"
compound="O=C(O)Cc1cccc(O)c1 [3-Hydroxyphenylacetic acid (3OH-PAA), 3-hydroxyphenylacetic acid]" group="condition met"
compound="O=C(O)CNC(=O)c1cccc(O)c1 [3-Hydroxyhippuric acid (3OH-HA), 3-hydroxyhippuric acid]" group="condition met"
compound="O=C(O)CCc1ccccc1 [3-Phenylpropanoate acid (PPA), 3-phenylpropanoic acid]" group="condition not met"
compound="O=C(O)CCc1ccc(O)cc1 [3-(4-hydroxyphenyl)-propanoic acid]" group="condition not met"

Where do the numbers come from? From paper PMC6073423.
